Where do the numbers come from? From ChEMBL document CHEMBL1134725.

- MEASURED_TARGET: Alpha-1D adrenergic receptor (Homo sapiens) (UniProt P25100)
- Sequence (P25100 whole entry): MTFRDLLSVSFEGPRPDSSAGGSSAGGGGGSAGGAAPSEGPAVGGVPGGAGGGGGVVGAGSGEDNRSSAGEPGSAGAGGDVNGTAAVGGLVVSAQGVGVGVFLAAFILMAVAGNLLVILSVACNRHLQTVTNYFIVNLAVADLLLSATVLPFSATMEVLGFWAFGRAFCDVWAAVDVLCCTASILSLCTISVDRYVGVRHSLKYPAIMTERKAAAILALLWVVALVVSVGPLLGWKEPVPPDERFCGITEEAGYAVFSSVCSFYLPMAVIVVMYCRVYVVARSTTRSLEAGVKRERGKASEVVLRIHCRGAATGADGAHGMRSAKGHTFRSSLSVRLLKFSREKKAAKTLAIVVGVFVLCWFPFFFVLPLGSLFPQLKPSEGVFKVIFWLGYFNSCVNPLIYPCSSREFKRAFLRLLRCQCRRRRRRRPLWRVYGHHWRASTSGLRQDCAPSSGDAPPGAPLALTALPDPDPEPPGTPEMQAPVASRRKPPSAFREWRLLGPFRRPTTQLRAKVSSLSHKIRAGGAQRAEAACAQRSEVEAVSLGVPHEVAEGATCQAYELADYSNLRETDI
- EXPERIMENT_NOTES: Tested for efficacy against alpha 1D-adrenoceptor in human expressed as phenylephrine response at the dose of 40 uM
- Assay type: functional
Could you label it Fulfilled if measured Max is 60% or higher, and Not fulfilled otherwise?

Observe how each entry below is paired with its result.
[
  {
    "STRUCTURE": "O=C(c1ccccc1NCC1=NCCN1)N1CCCCC1",
    "QUALITATIVE_LABEL": "Fulfilled"
  },
  {
    "STRUCTURE": "CNC(=O)c1ccccc1NCC1=NCCN1",
    "QUALITATIVE_LABEL": "Fulfilled"
  },
  {
    "STRUCTURE": "CCCCOC(=O)c1ccccc1NCC1=NCCN1",
    "QUALITATIVE_LABEL": "Not fulfilled"
  },
  {
    "STRUCTURE": "CCOC(=O)c1ccccc1NCC1=NCCN1",
    "QUALITATIVE_LABEL": "Not fulfilled"
  },
  {
    "STRUCTURE": "CCNC(=O)c1ccccc1NCC1=NCCN1",
    "QUALITATIVE_LABEL": "Not fulfilled"
  },
  {
    "STRUCTURE": "c1ccc(C2CC2)c(OCC2=NCCN2)c1",
    "QUALITATIVE_LABEL": "Not fulfilled"
  },
  {
    "STRUCTURE": "CN(C)C(=O)c1ccccc1NCC1=NCCN1",
    "QUALITATIVE_LABEL": "Not fulfilled"
  },
  {
    "STRUCTURE": "CC(C)CNC(=O)c1ccccc1NCC1=NCCN1",
    "QUALITATIVE_LABEL": "Not fulfilled"
  },
  {
    "STRUCTURE": "CCN(C)C(=O)c1ccccc1NCC1=NCCN1",
    "QUALITATIVE_LABEL": "Fulfilled"
  },
  {
    "STRUCTURE": "CCCNC(=O)c1ccccc1NCC1=NCCN1",
    "QUALITATIVE_LABEL": "Fulfilled"
  }
]

// switching to the query compound
Query: Test whether the compound COC(=O)c1ccccc1NCC1=NCCN1 records Max of 60% or higher.
Reply: Fulfilled

====

- MEASURED_TARGET: Alpha-1B adrenergic receptor (Homo sapiens, UniProt P35368)
- Sequence (P35368 whole entry): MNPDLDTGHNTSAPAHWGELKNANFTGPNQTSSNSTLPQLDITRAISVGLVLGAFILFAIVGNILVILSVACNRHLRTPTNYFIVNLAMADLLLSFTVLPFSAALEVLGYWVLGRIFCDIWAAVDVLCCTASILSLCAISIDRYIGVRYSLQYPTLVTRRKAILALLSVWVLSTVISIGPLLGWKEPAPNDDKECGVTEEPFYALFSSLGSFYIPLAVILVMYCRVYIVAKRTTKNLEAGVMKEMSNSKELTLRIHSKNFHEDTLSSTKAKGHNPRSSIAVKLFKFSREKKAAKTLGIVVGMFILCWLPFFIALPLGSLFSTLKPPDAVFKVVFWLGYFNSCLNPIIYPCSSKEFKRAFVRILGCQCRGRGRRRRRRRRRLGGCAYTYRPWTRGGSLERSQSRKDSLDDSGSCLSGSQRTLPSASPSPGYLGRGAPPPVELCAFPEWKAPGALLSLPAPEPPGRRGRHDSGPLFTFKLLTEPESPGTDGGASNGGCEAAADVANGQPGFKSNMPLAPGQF
- EXPERIMENT_NOTES: Potency against cloned human alpha 1B adrenoceptor expressed in rat-1 fibroblasts.
PARAMETER_MEASURED: pEC50
API: returns pEC50 as number; meaning -log10 of concentration in mol/L.

As a guide, the following entries are already answered.
[
  {
    "STRUCTURE": "CCCCOC(=O)c1ccccc1NCC1=NCCN1",
    "PARAMETER_MEASURED": "pEC50",
    "OBS_VALUE": 7.60
  },
  {
    "STRUCTURE": "CNC(=O)c1ccccc1NCC1=NCCN1",
    "PARAMETER_MEASURED": "pEC50",
    "OBS_VALUE": 8.80
  },
  {
    "STRUCTURE": "CC(C)(C)OC(=O)c1ccccc1NCC1=NCCN1",
    "PARAMETER_MEASURED": "pEC50",
    "OBS_VALUE": 7.20
  },
  {
    "STRUCTURE": "CC(C)COC(=O)c1ccccc1NCC1=NCCN1",
    "PARAMETER_MEASURED": "pEC50",
    "OBS_VALUE": 7.10
  },
  {
    "STRUCTURE": "CCCNC(=O)c1ccccc1NCC1=NCCN1",
    "PARAMETER_MEASURED": "pEC50",
    "OBS_VALUE": 7.10
  },
  {
    "STRUCTURE": "c1ccc(C2CC2)c(OCC2=NCCN2)c1",
    "PARAMETER_MEASURED": "pEC50",
    "OBS_VALUE": 7.20
  },
  {
    "STRUCTURE": "CCN(C)C(=O)c1ccccc1NCC1=NCCN1",
    "PARAMETER_MEASURED": "pEC50",
    "OBS_VALUE": 6.60
  },
  {
    "STRUCTURE": "O=C(NC1CC1)c1ccccc1NCC1=NCCN1",
    "PARAMETER_MEASURED": "pEC50",
    "OBS_VALUE": 6.60
  }
]

Query: Could you share which pEC50 value was measured for O=C(c1ccccc1NCC1=NCCN1)N1CCCCC1 ?
Reply: 7.10

Query: Give its pEC50 value. Item: CCN(CC)C(=O)c1ccccc1NCC1=NCCN1
Reply: 5.70

Query: Given CCOC(=O)c1ccccc1NCC1=NCCN1 , state its recorded pEC50.
Reply: 6.80

Query: What value of pEC50 has been recorded for this entry: O=C(c1ccccc1NCC1=NCCN1)N1CCCC1
Reply: 6.50

Query: Given the compound CN(C)C(=O)c1ccccc1NCC1=NCCN1 , what is its reported pEC50?
Reply: 7.10

Query: Consider the compound COC(=O)c1ccccc1NCC1=NCCN1 and give its measured pEC50.
Reply: 9.40

Query: # lookup: pEC50 of CC(C)CNC(=O)c1ccccc1NCC1=NCCN1
Reply: 7.90

Query: Reported pEC50 for CCNC(=O)c1ccccc1NCC1=NCCN1 : what is it?
Reply: 6.70

Query: Dear colleague, I am looking for the recorded pEC50 of the following compound: CC(C)NC(=O)c1ccccc1NCC1=NCCN1
Reply: 6.90
